B1: MMP1 (parent)
chain: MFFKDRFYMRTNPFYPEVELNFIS

variants of: B1; assay: protein stability index of a GFP-peptide fusion (GPS, HEK-293T) (PSI 1-6); higher = more stable; settings: c terminus: a fixed tail appended;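 also: lentivirally expressed fusions sorted by FACS into six bins by GFP to DsRed ratio, PSI derived from sequencing read proportions per bin multiplied by bin number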
property-measured: protein stability index

Example variants with recorded protein stability index:
V18K :: 3.54
N12C :: 3.02
F3T :: 2.11
D5T :: 3.47
N21A :: 2.56

Req: Find the recorded protein stability index belonging to E17T and report it.
Resp: 1.84

Req: Follow-up item: F7V
Resp: 4.52

Req: Follow-up item: P16G
Resp: 3.15

Req: Follow-up item: N12D
Resp: 3.11

Req: Follow-up item: V18W
Resp: 3.22

Req: Follow-up item: E17F
Resp: 2.19

Req: Follow-up item: N12K
Resp: 3.17
